This collection of values is drawn from patent US11370774B2.

Parameter 'readout' = IC50; parameter 'system' = Factor D (Homo sapiens (Human), UniProt P00746).
Sequence (P00746 26-253): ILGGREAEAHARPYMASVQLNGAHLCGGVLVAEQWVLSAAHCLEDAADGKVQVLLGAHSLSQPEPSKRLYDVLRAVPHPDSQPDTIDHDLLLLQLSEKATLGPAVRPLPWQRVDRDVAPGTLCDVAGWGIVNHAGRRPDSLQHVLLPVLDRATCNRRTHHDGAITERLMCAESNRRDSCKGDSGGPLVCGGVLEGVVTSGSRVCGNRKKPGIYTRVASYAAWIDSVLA

Compound	Test System	IC50
COCc1cc2cc(COc3cc(NC(C)=O)ccc3CC(=O)O)cc(-c3cccc(CN)c3F)c2o1 [Compound 441c]	Factor D (Homo sapiens (Human), UniProt P00746)	< 1000 nM
NCc1nccc(-c2cc(COc3cc(F)ccc3CC(=O)O)cc3cc(F)oc23)c1F [Compound 522c]	Factor D (Homo sapiens (Human), UniProt P00746)	< 1000 nM
NCc1cccc(-c2cc(COc3cc(F)ccc3CC(=O)O)cc3ccoc23)c1 [Compound 260g]	Factor D (Homo sapiens (Human), UniProt P00746)	< 1000 nM
Cc1ccc(CC(=O)O)c(OCc2cc(-c3ccnc(CN)c3)c3ccn(C)c3c2)c1 [Compound 367c]	Factor D (Homo sapiens (Human), UniProt P00746)	< 1000 nM
COCc1cc2cc(COc3cc(C)ccc3CC(=O)O)cc(-c3ccnc(CN)c3)c2o1 [Compound 454d]	Factor D (Homo sapiens (Human), UniProt P00746)	< 1000 nM
COc1ccc(CC(=O)O)c(OCc2cc(-c3cccc(CN)c3)c3occc3c2)c1 [Compound 303g]	Factor D (Homo sapiens (Human), UniProt P00746)	< 1000 nM
CCc1ccc(CC(=O)O)c(OCc2cc(-c3cccc(CN)c3)c3occc3c2)c1 [Compound 316b]	Factor D (Homo sapiens (Human), UniProt P00746)	< 1000 nM
NCc1cccc(-c2cc(COc3ccccc3CC(=O)O)cc3cc(Cl)oc23)c1 [Compound 169f]	Factor D (Homo sapiens (Human), UniProt P00746)	< 1000 nM
NCc1cc(-c2cc(COc3c(F)cccc3CC(=O)O)cc3ccoc23)ccn1 [Compound 504c]	Factor D (Homo sapiens (Human), UniProt P00746)	< 1000 nM
Cc1ccc(CC(=O)O)c(OCc2cc(-c3ccnc(CN)c3)c3oc(F)cc3c2)c1 [Compound 526b]	Factor D (Homo sapiens (Human), UniProt P00746)	< 1000 nM
COCCOCCOCCOCc1cc2cc(COc3ccccc3CC(=O)O)cc(-c3cccc(CN)c3)c2o1 [Compound 344f]	Factor D (Homo sapiens (Human), UniProt P00746)	< 1000 nM
NCc1c(F)ccc(-c2cc(COc3ccccc3CC(=O)O)cc3ccoc23)c1F [Compound 75c]	Factor D (Homo sapiens (Human), UniProt P00746)	< 1000 nM
NCc1cccc(-c2cc(C(=O)Nc3ccccc3CC(=O)O)nc3ccoc23)c1 [Compound 255c]	Factor D (Homo sapiens (Human), UniProt P00746)	1000 to 10000 nM
NCc1cccc(-c2cc(NC(=O)[C@@H]3CCCN3CC(=O)O)cc3ccoc23)c1 [Compound 250f]	Factor D (Homo sapiens (Human), UniProt P00746)	1000 to 10000 nM
NCc1nccc(-c2cc(COc3cc(F)ccc3CC(=O)O)c(F)c3ccoc23)c1F [Compound 509d]	Factor D (Homo sapiens (Human), UniProt P00746)	< 1000 nM
N#Cc1ccc(CC(=O)O)c(OCc2cc(-c3ccnc(CN)c3)c3occc3c2)c1 [Compound 433c]	Factor D (Homo sapiens (Human), UniProt P00746)	< 1000 nM
C[C@@H](N)c1cccc(-c2cc(COc3ccccc3CC(=O)O)cc3ccoc23)c1F [Compound 65c]	Factor D (Homo sapiens (Human), UniProt P00746)	< 1000 nM
COCc1cc2cc(COc3ccccc3CC(=O)O)cc(-c3ccnc(CN)c3)c2o1 [Compound 132b]	Factor D (Homo sapiens (Human), UniProt P00746)	< 1000 nM
NCc1cccc(-c2cc(COc3ccccc3CC(=O)O)cc3ccoc23)c1 [Compound 23e]	Factor D (Homo sapiens (Human), UniProt P00746)	< 1000 nM
CCCc1cc2cc(COc3ccccc3CC(=O)O)cc(-c3cccc(CN)c3F)c2o1 [Compound 188b]	Factor D (Homo sapiens (Human), UniProt P00746)	< 1000 nM
Nc1c[nH]c2c(-c3cc(COc4ccccc4CC(=O)O)cc4ccoc34)cccc12 [Compound 341e]	Factor D (Homo sapiens (Human), UniProt P00746)	< 1000 nM
CCOC(=O)Cc1ccccc1NC(=O)c1cc(-c2cccc(CN)c2)c2occc2c1 [Compound 15c]	Factor D (Homo sapiens (Human), UniProt P00746)	> 10000 nM
NCc1cccc(-c2cc(COc3ccccc3CC(=O)O)cc3c2ccn3-c2ccccc2)c1 [Compound 351f]	Factor D (Homo sapiens (Human), UniProt P00746)	< 1000 nM
Cc1ccc(CC(=O)O)c(OCc2cc(-c3cccc(CN)c3F)c3ccn(C(C)C)c3c2)c1 [Compound 353b]	Factor D (Homo sapiens (Human), UniProt P00746)	< 1000 nM
Cc1ccc(CC(=O)O)c(OCc2cc(-c3ccnc(CN)c3)c3occ(C(F)(F)F)c3c2)c1 [Compound 379c]	Factor D (Homo sapiens (Human), UniProt P00746)	< 1000 nM
NCc1cccc(-c2cc(COc3ccccc3CC(=O)O)c(F)c3ccoc23)c1 [Compound 136e]	Factor D (Homo sapiens (Human), UniProt P00746)	< 1000 nM
NC(=O)c1ccc(CC(=O)O)c(OCc2cc(-c3cccc(C(N)CF)c3)c3occc3c2)c1 (single isomer, unassigned; (+)) [Compound 436c]	Factor D (Homo sapiens (Human), UniProt P00746)	< 1000 nM
COCc1cc2cc(COc3cc(OC)ccc3CC(=O)O)cc(-c3ccnc(CN)c3F)c2o1 [Compound 471d]	Factor D (Homo sapiens (Human), UniProt P00746)	< 1000 nM
NC(CF)c1cccc(-c2cc(COc3ccccc3CC(=O)O)cc3ccoc23)c1 (centres unmarked) [Compound 186c]	Factor D (Homo sapiens (Human), UniProt P00746)	< 1000 nM
NCc1cccc(-c2nc(C(=O)Nc3ccccc3CC(=O)O)c3cccn3n2)c1F [Compound 34f]	Factor D (Homo sapiens (Human), UniProt P00746)	< 1000 nM
NCc1cc(-c2cc(COc3ccc(F)cc3CC(=O)O)c(F)c3ccoc23)ccn1 [Compound 389c]	Factor D (Homo sapiens (Human), UniProt P00746)	< 1000 nM
COc1ccc(OCc2cc(-c3cccc(CN)c3)c3occc3c2)c(CC(=O)O)c1 [Compound 350e]	Factor D (Homo sapiens (Human), UniProt P00746)	< 1000 nM

###

The following molecules each carry a recorded IC50 for Factor D (Homo sapiens (Human), UniProt P00746).

Molecule	IC50
N[C@H](CO)c1cccc(-c2cc(COc3ccccc3CC(=O)O)cc3ccoc23)c1 [Compound 59d]	< 1000 nM
NCc1cc(-c2cc(COc3ccccc3CC(=O)O)cc3sc(Cl)cc23)ccn1 [Compound 336c]	< 1000 nM
NCc1cccc(-c2nc(C(=O)Nc3ccccc3CC(=O)O)cc3ccncc23)c1 [Compound 35f]	1000 to 10000 nM
Cc1cc(CC(=O)O)c(OCc2cc(-c3ccnc(CN)c3)c3occc3c2)cc1C [Compound 428c]	< 1000 nM

###

This section lists IC50 readings for Factor D (Homo sapiens (Human), UniProt P00746).

Compound	IC50
CN(C)c1nc2cc(C(=O)Nc3ccccc3CC(=O)O)cc(-c3cccc(CN)c3)c2o1 [Compound 61f]	1000 to 10000 nM
Cn1ncc2c(-c3ccnc(CN)c3)cc(COc3ccccc3CC(=O)O)cc21 [Compound 135c]	< 1000 nM
NCc1cccc(-c2cc(COc3ccccc3CC(=O)O)cc3c2ccn3C(F)(F)F)c1F [Compound 518b]	< 1000 nM
NCc1cccc(-c2cc(NC(=O)c3ccccc3N)cc3ccoc23)c1 [Compound 216d]	> 10000 nM
NCc1cc(F)cc(-c2nc(C(=O)Nc3ccccc3CC(=O)O)c3cccn3n2)c1 [Compound 21d]	< 1000 nM
CC(=O)c1ccc(OCc2cc(-c3cccc(CN)c3)c3occc3c2)c(CC(=O)O)c1 [Compound 330c]	< 1000 nM
NCc1cccc(-c2cc(COc3ccccc3CC(=O)O)cc3cc(-c4ccccc4)oc23)c1 [Compound 374f]	< 1000 nM
N#Cc1ccc(CC(=O)O)c(OCc2cc(-c3ccnc(CN)c3F)c3occc3c2)c1 [Compound 435b]	< 1000 nM

###

Test System: Factor D (Homo sapiens (Human), UniProt P00746)
IC50 reference
Quantity Kind: IC50

Compound	Quantity Kind	Value Measured
NCc1cccc(-c2nc(C(=O)Nc3cscc3CC(=O)O)cc3ccoc23)c1 [Compound 145c]	IC50	< 1000 nM
N[C@H](CO)c1cccc(-c2cc(COc3ccccc3CC(=O)O)cc3ccoc23)c1F [Compound 67c]	IC50	< 1000 nM
Cc1ccc(CC(=O)O)c(OCc2cc(-c3ccnc(CN)c3F)c3occc3c2)c1C [Compound 305d]	IC50	< 1000 nM
NCc1cccc(-c2cc(COc3ccccc3CC(=O)O)cc3cc(CNCc4ccccc4)oc23)c1 [Compound 283c]	IC50	< 1000 nM
CC(=O)Nc1ccc(CC(=O)O)c(OCc2cc(-c3ccnc(CN)c3)c3occc3c2)c1 [Compound 437c]	IC50	< 1000 nM
COc1ccc(CC(=O)O)c(OCc2cc(-c3cccc(CN)c3F)c3occ(C(F)(F)F)c3c2)c1 [Compound 489b]	IC50	< 1000 nM
CC(C)n1ccc2c(-c3cccc(CN)c3)cc(COc3ccc(F)cc3CC(=O)O)cc21 [Compound 474c]	IC50	< 1000 nM
NCc1cccc(-c2cc(COc3ccccc3Cc3nn[nH]n3)cc3ccoc23)c1 [Compound 311b]	IC50	> 10000 nM
NCc1cccc(-c2cc(COc3ccc(C(N)=O)cc3CC(=O)O)cc3ccoc23)c1 [Compound 244c]	IC50	1000 to 10000 nM
NCc1cccc(-c2cc(C(=O)Nc3ccccc3CC(=O)O)c3nccn3n2)c1 [Compound 27f]	IC50	> 10000 nM
NCc1cccc(-c2cc(COc3ccccc3CC(=O)O)nc3[nH]ccc23)c1 [Compound 52a]	IC50	< 1000 nM
CC(C)n1ccc2c(-c3ccnc(CN)c3)cc(COc3ccc(F)cc3CC(=O)O)cc21 [Compound 497d]	IC50	< 1000 nM
NCc1nccc(-c2cc(COc3ccccc3CC(=O)O)cc3c2ccn3C(F)(F)F)c1F [Compound 533c]	IC50	< 1000 nM
NCc1cccc(-c2cc(CNc3ccccc3CC(=O)O)cc3ccoc23)c1 [Compound 153b]	IC50	< 1000 nM
NCc1cccc(-c2cc(COc3cc(-c4ccncc4)ccc3CC(=O)O)cc3ccoc23)c1 [Compound 323c]	IC50	< 1000 nM
NCc1cccc(-c2cc(COc3ccccc3C(NC(=O)CCc3ccccc3)C(=O)O)cc3ccoc23)c1 (stereo not shown) [Compound 253f]	IC50	< 1000 nM
